# experimental-target: Phosphorylase b kinase gamma catalytic chain, liver/testis isoform (Homo sapiens)
# condition-set: at 1 µM
Listing: residual activity of selected molecules
Numeric answer only, unit % assumed.

Recorded residual activity, per entry:
Short answer for `COc1cccc(-c2cc(=O)c3ccccc3o2)c1N` : residual activity was 113

Short answer for `Ic1cccc(CSc2nnc(-c3ccncc3)o2)c1` : residual activity was 106

Short answer for `O=C(Nc1cccc(Nc2nccc(Nc3cccc(C(F)(F)F)c3)n2)c1)C1CC1` : residual activity was 94

Short answer for `CO[C@@H]1[C@H](N(C)C(=O)c2ccccc2)C[C@H]2O[C@]1(C)n1c3ccccc3c3c4c(c5c6ccccc6n2c5c31)C(=O)NC4` : residual activity was 44

Short answer for `CC(C)n1cnc2/c(=N/c3cccc(Cl)c3)nc(NCCO)[nH]c21` : residual activity was 52

Proceeding to the next molecule to report its residual activity.
Short answer for `O=C1NC(=O)c2c1c1c3ccccc3[nH]c1c1[nH]c3cc(Br)ccc3c21` : residual activity was 114

---

# experimental-target: Ephrin type-A receptor 7 (Homo sapiens) (UniProt Q15375)
# Sequence (Q15375 28-998 limits assumed): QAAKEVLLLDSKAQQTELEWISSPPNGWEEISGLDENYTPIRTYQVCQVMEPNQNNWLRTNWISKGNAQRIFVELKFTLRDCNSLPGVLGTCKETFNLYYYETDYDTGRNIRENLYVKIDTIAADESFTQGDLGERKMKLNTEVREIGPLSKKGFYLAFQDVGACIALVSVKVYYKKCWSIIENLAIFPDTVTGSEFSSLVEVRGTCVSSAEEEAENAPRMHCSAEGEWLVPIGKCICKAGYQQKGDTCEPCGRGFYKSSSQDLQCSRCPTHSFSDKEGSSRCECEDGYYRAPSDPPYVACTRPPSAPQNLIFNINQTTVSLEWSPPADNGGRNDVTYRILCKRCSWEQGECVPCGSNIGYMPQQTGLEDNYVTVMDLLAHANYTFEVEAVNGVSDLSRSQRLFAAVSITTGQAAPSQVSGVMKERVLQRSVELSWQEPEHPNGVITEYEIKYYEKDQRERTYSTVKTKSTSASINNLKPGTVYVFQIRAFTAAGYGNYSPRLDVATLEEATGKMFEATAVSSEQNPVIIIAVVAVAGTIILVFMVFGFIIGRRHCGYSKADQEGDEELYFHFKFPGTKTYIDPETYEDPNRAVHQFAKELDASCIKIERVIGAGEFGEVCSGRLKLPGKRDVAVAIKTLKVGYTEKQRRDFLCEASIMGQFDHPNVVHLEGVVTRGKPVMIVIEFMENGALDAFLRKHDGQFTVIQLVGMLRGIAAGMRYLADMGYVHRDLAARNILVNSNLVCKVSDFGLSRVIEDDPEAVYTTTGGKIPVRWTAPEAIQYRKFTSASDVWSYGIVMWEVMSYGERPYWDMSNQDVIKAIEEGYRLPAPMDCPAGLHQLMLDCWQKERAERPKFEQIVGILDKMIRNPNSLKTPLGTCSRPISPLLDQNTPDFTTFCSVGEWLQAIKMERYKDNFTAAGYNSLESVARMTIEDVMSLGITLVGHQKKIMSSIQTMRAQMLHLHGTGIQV
# condition-set: at 1 µM
// NB: equality with 90% counts as rule not met; only residual activity strictly below is rule met

Is the reported residual activity for `CCN(CC)CCCCN1c2ccccc2Oc2ccc(Cl)cc21` strictly below 90%?
rule not met

Is the reported residual activity for `Cc1cc(Nc2nc(-c3ccccc3)nc3ccccc23)n[nH]1` strictly below 90%?
rule met

Is the reported residual activity for `CO[C@@H]1[C@H](N(C)C(=O)c2ccccc2)C[C@H]2O[C@]1(C)n1c3ccccc3c3c4c(c5c6ccccc6n2c5c31)C(=O)NC4` strictly below 90%?
rule not met

---
Is the reported residual activity for `O=Nc1c(-c2c(O)[nH]c3ccccc23)[nH]c2ccccc12` strictly below 90%?
rule met

Is the reported residual activity for `COc1cc2ncnc(Nc3ccc(O)c(Br)c3)c2cc1OC` strictly below 90%?
rule met

---

# experimental-target: Serine/threonine-protein kinase BRSK2 (Homo sapiens) (UniProt Q8IWQ3)
# Sequence (Q8IWQ3 whole entry): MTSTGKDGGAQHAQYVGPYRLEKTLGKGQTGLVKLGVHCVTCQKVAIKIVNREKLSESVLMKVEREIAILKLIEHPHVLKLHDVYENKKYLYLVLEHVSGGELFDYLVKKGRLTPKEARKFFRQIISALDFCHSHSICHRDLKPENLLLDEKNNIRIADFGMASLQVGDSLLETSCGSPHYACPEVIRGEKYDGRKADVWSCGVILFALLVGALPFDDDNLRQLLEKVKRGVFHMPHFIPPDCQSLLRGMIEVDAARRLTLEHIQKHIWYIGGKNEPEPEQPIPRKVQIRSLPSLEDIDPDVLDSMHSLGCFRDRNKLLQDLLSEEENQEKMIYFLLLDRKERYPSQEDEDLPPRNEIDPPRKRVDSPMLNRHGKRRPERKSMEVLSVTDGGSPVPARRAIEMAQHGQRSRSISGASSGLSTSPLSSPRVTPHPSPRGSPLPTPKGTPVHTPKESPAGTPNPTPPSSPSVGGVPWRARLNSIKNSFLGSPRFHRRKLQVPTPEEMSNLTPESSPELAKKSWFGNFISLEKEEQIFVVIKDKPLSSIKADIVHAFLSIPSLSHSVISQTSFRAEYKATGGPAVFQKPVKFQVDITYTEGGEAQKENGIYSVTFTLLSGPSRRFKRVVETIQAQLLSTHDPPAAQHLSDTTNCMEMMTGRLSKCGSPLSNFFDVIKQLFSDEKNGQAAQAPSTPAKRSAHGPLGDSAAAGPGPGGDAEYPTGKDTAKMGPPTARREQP
# condition-set: at 1 µM
quantity-name: residual activity (%)
Numeric answer only, unit % assumed.

Recorded residual activity, per entry:
Short answer for `O=C1Nc2cc(Br)ccc2/C1=C1/Nc2ccccc2/C1=N\O` : residual activity was 4

Short answer for `CCC(=O)Nc1ccc2ncnc(Nc3cccc(Br)c3)c2c1` : residual activity was 97

Short answer for `Cn1nc2c3c(cccc31)C(=O)c1ccccc1-2` : residual activity was 101

---
Short answer for `Nc1ccc2ncnc(NCCc3ccc(Oc4ccccc4)cc3)c2c1` : residual activity was 113

Short answer for `O=C1NC(=O)c2c1c1c3ccccc3[nH]c1c1[nH]c3cc(Br)ccc3c21` : residual activity was 69

Short answer for `O=C(Nc1cccc(Nc2nccc(Nc3cccc(C(F)(F)F)c3)n2)c1)C1CC1` : residual activity was 93

---

Listing: residual activity of selected compounds
# experimental-target: Serine/threonine-protein kinase pim-2 (Homo sapiens)
# condition-set: at 10 µM

Recorded residual activity, per entry:
Short answer for `O=Nc1c(-c2c(O)[nH]c3ccccc23)[nH]c2ccccc12` : residual activity was 38%

Short answer for `COc1cc2ncnc(Nc3ccc(Oc4ccccc4)cc3)c2cc1OC` : residual activity was 142%

Short answer for `Oc1ccc(Nc2nc(-c3ccc(Cl)cc3)cs2)cc1` : residual activity was 82%

---
Short answer for O=C1Nc2ccccc2/C1=C1/Nc2ccccc2/C1=N\OCCC(O)CO (configuration not stated) : residual activity was 44%

Short answer for `O=C1NC(=O)/C(=C/c2ccc3c(c2)OC(F)(F)O3)S1` : residual activity was 10%

Short answer for `COc1ccc(S(=O)(=O)N(CCO)c2ccccc2CN(C)C/C=C/c2ccc(Cl)cc2)cc1` : residual activity was 137%

Short answer for `N#Cc1cnc2cnc(NCc3cccnc3)cc2c1Nc1ccc(F)c(Cl)c1` : residual activity was 63%

Short answer for `CNc1cc2c(Nc3cccc(Br)c3)ncnc2cn1` : residual activity was 88%

Short answer for `CCOc1cc2ncnc(Nc3cccc(Br)c3)c2cc1OCC` : residual activity was 79%

---

# experimental-target: LIM domain kinase 1 (Homo sapiens)
# condition-set: at 10 µM
quantity-name: residual activity (%)
Numeric answer only, unit % assumed.

Recorded residual activity, per entry:
Short answer for `CC(=O)c1ccc(N2CCOCC2)cc1O` : residual activity was 83

Short answer for `Cc1cccc(-c2[nH]c(C(C)(C)C)nc2-c2ccc3c(c2)OCO3)n1` : residual activity was 95

Short answer for `CO[C@@H]1[C@H](N(C)C(=O)c2ccccc2)C[C@H]2O[C@]1(C)n1c3ccccc3c3c4c(c5c6ccccc6n2c5c31)C(=O)NC4` : residual activity was 4

Short answer for `CNc1cc2c(Nc3cccc(Br)c3)ncnc2cn1` : residual activity was 43

Short answer for `O=C1c2ccccc2-[n+]2ccc3c([nH]c4ccccc43)c21` : residual activity was 88

Short answer for `CN(C)CCCn1cc(C2=C(c3c[nH]c4ccccc34)C(=O)NC2=O)c2ccccc21` : residual activity was 73

Short answer for O=C1Nc2ccccc2/C1=C1/Nc2ccccc2/C1=N\OCCC(O)CO (configuration not stated) : residual activity was 33

Short answer for `NC(=O)c1ccc2[nH]c(-c3ccc(Oc4ccc(Cl)cc4)cc3)nc2c1` : residual activity was 55

Short answer for `Cc1ccc(S(=O)(=O)/C=C/C#N)cc1` : residual activity was 92

Short answer for `Cn1nc2c3c(cccc31)C(=O)c1ccccc1-2` : residual activity was 80

---
Short answer for `O=c1c2ccccc2[nH]c(=S)n1CCN1CCC(=C(c2ccc(F)cc2)c2ccc(F)cc2)CC1` : residual activity was 93

---

Listing: residual activity of selected compounds
# experimental-target: Ribosomal protein S6 kinase alpha-6 (Homo sapiens)
# condition-set: at 1 µM
Numeric answer only, unit % assumed.

Recorded residual activity, per entry:
Short answer for `Cn1nc2c3c(cccc31)C(=O)c1ccccc1-2` : residual activity was 59

Short answer for `CC(C)n1cnc2/c(=N/c3cccc(Cl)c3)nc(NCCO)[nH]c21` : residual activity was 34

Short answer for `Cc1cncc2cccc(S(=O)(=O)N3CCCN(C(=O)CN)C[C@H]3C)c12` : residual activity was 90

Short answer for `Oc1ccc(-c2nc(-c3ccc(F)cc3)c(-c3ccncc3)[nH]2)cc1` : residual activity was 88

Short answer for `O=C(Nc1cccc(Nc2nccc(Nc3cccc(C(F)(F)F)c3)n2)c1)C1CC1` : residual activity was 96

Short answer for `Cc1cc2ncc(-c3ccccc3)nc2cc1C` : residual activity was 97

Short answer for `Cc1nc2cc3nc(-c4cccs4)cnc3cc2n1C` : residual activity was 101

Short answer for `CC(=O)c1ccc(N2CCOCC2)cc1O` : residual activity was 128

Proceeding to the next compound to report its residual activity.
Short answer for `Oc1n[nH]c2nnc(-c3c(-c4ccccc4)nn4ccccc34)cc12` : residual activity was 91

---

# experimental-target: Ephrin type-A receptor 4 (Homo sapiens) (UniProt P54764)
# Sequence (P54764 whole entry): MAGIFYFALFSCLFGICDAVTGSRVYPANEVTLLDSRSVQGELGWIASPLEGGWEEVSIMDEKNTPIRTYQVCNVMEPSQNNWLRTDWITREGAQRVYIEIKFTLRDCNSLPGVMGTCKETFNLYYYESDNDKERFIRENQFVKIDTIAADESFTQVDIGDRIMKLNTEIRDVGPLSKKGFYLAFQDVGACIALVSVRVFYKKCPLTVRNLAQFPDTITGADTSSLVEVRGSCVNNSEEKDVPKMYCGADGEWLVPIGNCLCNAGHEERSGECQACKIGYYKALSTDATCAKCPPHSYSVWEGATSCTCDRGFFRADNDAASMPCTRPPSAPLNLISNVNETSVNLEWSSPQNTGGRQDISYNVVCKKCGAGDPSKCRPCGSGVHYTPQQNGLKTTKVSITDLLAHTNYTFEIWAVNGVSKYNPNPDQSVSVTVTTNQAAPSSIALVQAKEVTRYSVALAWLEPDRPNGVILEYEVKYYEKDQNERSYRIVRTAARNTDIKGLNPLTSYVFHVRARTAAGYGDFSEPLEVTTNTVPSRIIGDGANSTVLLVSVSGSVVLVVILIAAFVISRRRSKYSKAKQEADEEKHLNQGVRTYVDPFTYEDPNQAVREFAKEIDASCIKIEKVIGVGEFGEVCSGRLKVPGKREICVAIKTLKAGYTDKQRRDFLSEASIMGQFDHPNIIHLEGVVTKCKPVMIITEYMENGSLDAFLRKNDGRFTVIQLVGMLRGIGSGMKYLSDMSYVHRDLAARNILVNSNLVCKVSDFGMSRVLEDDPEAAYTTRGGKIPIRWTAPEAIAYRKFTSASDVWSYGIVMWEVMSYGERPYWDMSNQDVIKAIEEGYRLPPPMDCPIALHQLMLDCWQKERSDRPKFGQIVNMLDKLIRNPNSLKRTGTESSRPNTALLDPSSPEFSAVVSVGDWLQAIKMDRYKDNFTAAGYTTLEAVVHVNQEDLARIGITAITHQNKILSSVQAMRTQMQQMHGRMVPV
# condition-set: at 1 µM
quantity-name: residual activity
Could you give the number and then its unit, please?

Recorded residual activity, per entry:
The molecule `O=C1NC(=O)/C(=C/c2ccc3c(c2)OC(F)(F)O3)S1` , tested on Ephrin type-A receptor 4 (Homo sapiens) (UniProt P54764), showed residual activity of 116%

The molecule `CO[C@H]1C[C@@H]2CC[C@@H](C)[C@@](O)(O2)C(=O)C(=O)N2CCCC[C@H]2C(=O)O[C@H]([C@H](C)C[C@@H]2CC[C@@H](O)[C@H](OC)C2)CC(=O)[C@H](C)/C=C(\C)[C@@H](O)[C@@H](OC)C(=O)[C@H](C)C[C@H](C)/C=C/C=C/C=C/1C` , tested on Ephrin type-A receptor 4 (Homo sapiens) (UniProt P54764), showed residual activity of 104%

The molecule `COc1cccc(-c2cc(=O)c3ccccc3o2)c1N` , tested on Ephrin type-A receptor 4 (Homo sapiens) (UniProt P54764), showed residual activity of 109%

The molecule `O=c1cc(-c2cccc3c2Sc2ccccc2S3)oc(N2CCOCC2)c1` , tested on Ephrin type-A receptor 4 (Homo sapiens) (UniProt P54764), showed residual activity of 106%

The molecule `Nc1n[nH]c2nnc(-c3c(-c4ccccc4)nn4ccccc34)cc12` , tested on Ephrin type-A receptor 4 (Homo sapiens) (UniProt P54764), showed residual activity of 104%

The molecule `Cc1ccc(S(=O)(=O)/C=C/C#N)cc1` , tested on Ephrin type-A receptor 4 (Homo sapiens) (UniProt P54764), showed residual activity of 106%

The molecule `O=Nc1c(-c2c(O)[nH]c3ccccc23)[nH]c2ccccc12` , tested on Ephrin type-A receptor 4 (Homo sapiens) (UniProt P54764), showed residual activity of 96%

The molecule `Ic1cccc(CSc2nnc(-c3ccncc3)o2)c1` , tested on Ephrin type-A receptor 4 (Homo sapiens) (UniProt P54764), showed residual activity of 104%

Proceeding to the next molecule to report its residual activity.
The molecule `CCOc1cc2ncnc(Nc3cccc(Br)c3)c2cc1OCC` , tested on Ephrin type-A receptor 4 (Homo sapiens) (UniProt P54764), showed residual activity of 86%
